TARGET_ENTITY: T1, DLG3_2, Q92796
T1 sequence (Q92796 221-321, limits assumed, looked up): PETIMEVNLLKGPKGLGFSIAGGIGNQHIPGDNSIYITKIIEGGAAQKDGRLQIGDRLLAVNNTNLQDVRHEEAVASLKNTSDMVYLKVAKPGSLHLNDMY
EXPERIMENTAL_DETAILS: holdup assay
Set-up: key: below the threshold = too weak to quantify, mostly under pKd 3.1 to 4
STUDY_CONDITIONS: plain residues with an end cap or a label only (N-terminal biotin on a linker: ado-ado)
OBSERVED_PROPERTY: pKd
Give only the figure.

Solved entries:
BINDER	DATA_VALUE
QLKSGRDSTV [TMEM178A, Q8NBL3]	4.35
ATKDKKITTV [EXOC4, Q96A65]	5.28

Exam item: Quick check: pKd of VISSDDLTEL [CAPN6, Q9Y6Q1] ?
Marked response: 3.99

All figures here come from paper PMC9482650.
